- assayed_system: XccFPR (Xanthomonas citri pv. citri, UniProt A0AAI7ZED9)
- Sequence (A0AAI7ZED9 1-259): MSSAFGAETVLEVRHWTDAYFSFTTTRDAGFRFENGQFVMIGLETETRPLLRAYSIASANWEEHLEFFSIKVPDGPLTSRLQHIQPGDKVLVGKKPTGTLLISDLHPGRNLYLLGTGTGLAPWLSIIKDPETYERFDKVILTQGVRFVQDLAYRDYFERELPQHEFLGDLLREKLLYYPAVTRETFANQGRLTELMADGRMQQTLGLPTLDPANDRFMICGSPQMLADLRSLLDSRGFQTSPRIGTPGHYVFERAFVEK
- test_description: NADPH-dependent DCPIP diaphorase activity of XccFPR, dose-response of inhibitors
- Assay type: biochemical, Xanthomonas citri subsp. citri
- Description: When assayed in regular cuvettes, the DCPIP diaphorase activity of XccFPR was determined at 25 °C using a Cary 100 (Agilent Technologies Inc., Santa Clara, CA, USA) spectrophotometer as previously established. […] Positive controls (without any hit compound) were included in every reaction set. […] The DMSO concentration was kept at 2% in all samples. […] The effect of the inhibitors on Km and kcat was determined by fitting the datasets to the Michaelis-Menten model. […]
pIC50: −log10 of the molar value.

smiles_notation | assayed_system | pIC50
Cc1ccc(C)c(CSc2nc(C3CCCCC3)c(C#N)c(=O)[nH]2)c1 | XccFPR (Xanthomonas citri pv. citri, UniProt A0AAI7ZED9) | 4.46
CSc1sc(NC(=O)Nc2ccc(F)c(Cl)c2)c(-c2ccc(Cl)cc2)c1C#N | XccFPR (Xanthomonas citri pv. citri, UniProt A0AAI7ZED9) | 5.11
COc1cc(C2SCCS2)cc([N+](=O)[O-])c1OS(=O)(=O)c1cc(Cl)ccc1Cl | XccFPR (Xanthomonas citri pv. citri, UniProt A0AAI7ZED9) | 4.11
Cc1c(S(=O)(=O)c2ccc(Cl)cc2)csc1C(=O)Nc1ccc(F)cc1F | XccFPR (Xanthomonas citri pv. citri, UniProt A0AAI7ZED9) | 4.42
O=C(O/N=C/Nc1ncc(-c2ccc(Br)s2)s1)c1ccc([N+](=O)[O-])cc1 | XccFPR (Xanthomonas citri pv. citri, UniProt A0AAI7ZED9) | 4.04

* * *

Catalogue of compounds with associated % Inhibition at ICmax
- assayed_system: XccFPR (Xanthomonas citri pv. citri, UniProt A0AAI7ZED9)
- Sequence (A0AAI7ZED9 1-259): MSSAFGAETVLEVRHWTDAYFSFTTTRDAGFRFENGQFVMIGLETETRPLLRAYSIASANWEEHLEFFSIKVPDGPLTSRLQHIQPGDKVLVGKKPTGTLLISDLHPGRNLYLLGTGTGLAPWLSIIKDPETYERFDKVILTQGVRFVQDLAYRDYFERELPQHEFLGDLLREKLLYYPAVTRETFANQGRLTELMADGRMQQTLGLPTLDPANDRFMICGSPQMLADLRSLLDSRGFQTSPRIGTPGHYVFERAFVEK
- test_description: NADPH-dependent DCPIP diaphorase activity of XccFPR, dose-response of inhibitors
- Format: biochemical, Xanthomonas citri subsp. citri
- assay_conditions: at ICmax; 25 °C, 2% DMSO, pH 8.0, 20 nM XccFPR, 95 µM DCPIP, 50 μM NADPH

compound | endpoint_unit | % Inhibition at ICmax
Cc1c(S(=O)(=O)c2ccc(Cl)cc2)csc1C(=O)Nc1ccc(F)cc1F | % | 100
Clc1ccc2sc(SCc3ccccc3)nc2c1 | % | 88
CCOC(=O)C1=C(C)NC(C)=C(C(=O)OCC)C1c1ccc(-c2cc(C(F)(F)F)ccc2Cl)o1 | % | 62
O=C(Nc1cccc(Cl)c1)Nc1ccccc1NS(=O)(=O)c1cccs1 [D1] | % | 98
CC(C)S(=O)(=O)c1c(SCC#N)sc(C#N)c1N | % | 92
O=C(Nc1ccccc1-c1nc(-c2ccc(Cl)cc2)no1)C(F)(F)F | % | 27
O=C1/C(=C/c2cccs2)CCC/C1=C\c1cccs1 | % | 100
Cc1cc(C)c2cc(C(=O)Nc3ccc4c(c3)OCO4)[nH]c2c1 | % | 100
Brc1csc(C2SCCS2)c1 | % | 85
O=C(Nc1ccc(Cl)cc1)Nc1nnc(SCc2ccc(Cl)cc2)s1 | % | 100
CSc1sc(NC(=O)N2CCOCC2)c(-c2ccc(Cl)cc2)c1C#N | % | 78
Cc1cccc(C)c1NC(=O)Nc1cccs1 | % | 84
CCCCc1ccc(NC(=O)CSc2nc(C3CCCCC3)c(C#N)c(=O)[nH]2)c(C)c1 | % | 81
N#CC(NCc1ccccc1)c1ccc(Cl)c(Cl)c1 (centres unmarked) | % | 80
CSc1sc(NC(=O)Nc2cccc(C(F)(F)F)c2)cc1C#N [D2] | % | 100
C#CC1(NC(=O)NCCCCCCNC(=O)NC2(C#C)CCCCC2)CCCCC1 | % | 97
Cc1ccc(C)c(CSc2nc(C3CCCCC3)c(C#N)c(=O)[nH]2)c1 | % | 43
COc1cc(C2SCCS2)cc([N+](=O)[O-])c1OS(=O)(=O)c1cc(Cl)ccc1Cl | % | 92
N#CC(C#N)=C1SC=C(c2ccc(Cl)cc2)S1 | % | 73
Nc1c(Cl)cc(C(=O)Nc2cc(Cl)c(Cl)cc2Cl)cc1Cl | % | 57
COc1ccc(C(C)=O)cc1CO/N=C1\CSCc2ccccc21 | % | 79
O=C(COC(=O)c1cccc(I)c1)c1ccccc1 [C35, 2-oxo-2-phenylethyl 3-iodobenzoate] | % | 100
